The reported numbers originate from ChEMBL document CHEMBL1177710.

Overview of recorded Activity for various compounds
Tested on: Escherichia coli
Assay: Inhibition of Escherichia coli FimH-mediated hemagglutinination of guinea pig red blood cells assessed as drug level required for > 90% inhibition of hemagglutinination

SMILES_TEXT	Activity (µM)
COC(=O)c1ccc(-c2ccc(O[C@H]3O[C@H](CO)[C@@H](O)[C@H](O)[C@@H]3O)cc2)cc1	4
OC[C@H]1O[C@H](Oc2ccc(-c3ccccc3O)cc2)[C@@H](O)[C@@H](O)[C@@H]1O	8
N#Cc1cccc(O[C@H]2O[C@H](CO)[C@@H](O)[C@H](O)[C@@H]2O)c1	23
OCc1ccccc1-c1ccc(O[C@H]2O[C@H](CO)[C@@H](O)[C@H](O)[C@@H]2O)cc1	16
OC[C@H]1O[C@H](Oc2ccccc2)[C@@H](O)[C@@H](O)[C@@H]1O	30
CS(=O)(=O)Nc1ccccc1-c1ccc(O[C@H]2O[C@H](CO)[C@@H](O)[C@H](O)[C@@H]2O)cc1	12
COC(=O)c1cccc(-c2ccc(O[C@H]3O[C@H](CO)[C@@H](O)[C@H](O)[C@@H]3O)cc2)c1	1
OC[C@H]1O[C@H](Oc2cccc(Cl)c2)[C@@H](O)[C@@H](O)[C@@H]1O	8
CCCCO[C@H]1O[C@H](CO)[C@@H](O)[C@H](O)[C@@H]1O	125
